# Tested on: HT29 colon
# EXPERIMENTAL_PROTOCOL: NCI tumour cell line growth inhibition, 48 h
EXPERIMENTAL_ENDPOINT: TGI

>>> print(df.to_string())
                                   compound         tgt  readout_value
0  CCOC(=O)NC(Nc1cc(Cl)ccc1OC)(C(F)(F)F)C(F)(F)F  HT29 colon       > 100 µM
1  CN(C)CCCOc1cccc(NC2=C(Cl)C(=O)C(Nc3cccc(OCCCN(C)C)c3)=C(Cl)C2=O)c1  HT29 colon        1.59 µM
2  COc1cc(-c2ccc(N=Nc3ccc4c(S(=O)(=O)O)cc(S(=O)(=O)O)c(N)c4c3O)c(OC)c2)ccc1N=Nc1ccc2c(S(=O)(=O)O)cc(S(=O)(=O)O)c(N)c2c1O  HT29 colon       > 100 µM
3         CCOC(=O)c1ccc(NC(=O)NC2=NCCS2)cc1  HT29 colon       > 100 µM
4  CC(NC(=O)Cc1ccc(C(F)(F)P(=O)(OCc2ccc([N+](=O)[O-])o2)N(C)CCCCCl)cc1)c1ccc(OCC2CCCCC2)c(C(N)=O)c1 (centres undefined)  HT29 colon        21.2 µM
5            Nc1ccc(-c2nc3ccc(F)cc3s2)cc1Cl  HT29 colon       > 100 µM
6      C1CCCCC2(CCCCCCCCC3(CCC1)SCCS3)SCCS2  HT29 colon       > 100 µM
7  Clc1ccc2c(NCCCCN3OC3c3ccccc3)ccnc2c1 (centres undefined)  HT29 colon        10.9 µM
8        CCOc1ccc(N=C(NC(=O)c2ccccc2)SC)cc1  HT29 colon       > 100 µM
